So I've got a bunch of binders here, and I need their Bmax values.
# Assayed system: T1, Mouse CLDN18 A2.1 (mouse, UniProt P56857 10-264)
# T1 construct: On transfected HEK293-6E cells; also called Mouse CLDN18 2.1; mouse CLDN18.2 ortholog
# T1 chain: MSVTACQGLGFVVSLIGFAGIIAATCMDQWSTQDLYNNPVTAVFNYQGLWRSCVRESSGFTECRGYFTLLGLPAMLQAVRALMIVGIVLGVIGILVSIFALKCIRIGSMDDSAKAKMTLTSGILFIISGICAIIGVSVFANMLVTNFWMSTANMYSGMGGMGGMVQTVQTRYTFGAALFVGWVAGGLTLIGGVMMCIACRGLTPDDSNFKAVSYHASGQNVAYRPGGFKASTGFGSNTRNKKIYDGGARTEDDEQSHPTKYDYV
# Procedure details: FACS on transfected HEK293-6E cells, 4 parameter logistic fit
Answer with a number only.

Challenge: Param item = v37411 (antibody, human IgG1, V domains shown, Humanized, recombinant human IgG1-based monoclonal antibody; also called H5-L4) VH: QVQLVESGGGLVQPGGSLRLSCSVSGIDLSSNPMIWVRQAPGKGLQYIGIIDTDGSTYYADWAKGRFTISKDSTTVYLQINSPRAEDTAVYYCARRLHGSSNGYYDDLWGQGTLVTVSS VL: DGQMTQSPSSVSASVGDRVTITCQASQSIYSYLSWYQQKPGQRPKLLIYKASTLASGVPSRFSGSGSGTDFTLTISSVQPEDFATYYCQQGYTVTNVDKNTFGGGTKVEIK ; retrieve measured Bmax.
Response given: 1790

Challenge: Param item = v37410 (antibody, human IgG1, V domains shown, Humanized, recombinant human IgG1-based monoclonal antibody; also called H3-L4) VH: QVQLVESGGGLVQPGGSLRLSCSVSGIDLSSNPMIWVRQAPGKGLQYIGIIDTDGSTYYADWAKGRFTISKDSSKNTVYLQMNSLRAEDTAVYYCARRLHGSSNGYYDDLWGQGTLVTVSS VL: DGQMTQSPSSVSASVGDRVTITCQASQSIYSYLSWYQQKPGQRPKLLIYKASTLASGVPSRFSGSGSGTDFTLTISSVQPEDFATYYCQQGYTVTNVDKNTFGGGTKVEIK ; retrieve measured Bmax.
Response given: 1690

Challenge: Param item = v37408 (antibody, human IgG1, V domains shown, Humanized, recombinant human IgG1-based monoclonal antibody; also called H4-L2) VH: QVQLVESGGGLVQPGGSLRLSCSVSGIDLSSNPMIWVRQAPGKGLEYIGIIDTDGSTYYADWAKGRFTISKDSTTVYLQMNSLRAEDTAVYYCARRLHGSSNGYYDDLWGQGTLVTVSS VL: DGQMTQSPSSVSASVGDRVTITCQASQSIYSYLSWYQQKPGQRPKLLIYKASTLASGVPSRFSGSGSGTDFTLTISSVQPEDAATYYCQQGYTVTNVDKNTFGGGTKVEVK ; retrieve measured Bmax.
Response given: 1920
